- Tested on: A549
- experimental.protocol: Antiproliferative activity in human A549 cells assessed as inhibition of cell proliferation by SRB/MTT assay
- Type: functional, cell-based
value.type: IC50

INSERT INTO assay_data (mol, subject_of_test, value_type, result) VALUES
  ('Cc1cc(C)n(-c2nc(N/N=C\c3c[nH]c4ccccc34)nc(Nc3ccc(Br)cc3)n2)n1', 'A549', 'IC50', '7.5 µM');
